# ASSAY_METHOD_TEXT: qHTS drug screen for cell cycle checkpoint inhibitors in PARPi-resistant BRCA-mutant ovarian cancer cell lines. (AID 1963452)
# EXPERIMENTAL_SETUP: PEO1/OlaR viability, CellTiter-Glo luminescence, 96 h; measured here: PEO1 parental Z-AUC; stronger effect = lower value
Criterion: Z-AUC strictly less than -0.3. Met: condition met. Not met: condition not met.

Here are 3 compounds together with their reported answers.
In [3]: df
Out[3]:
                              record_smiles     assigned_label
0     N[C@@H](Cc1ccc(N(CCCl)CCCl)cc1)C(=O)O  condition not met
1  Cn1cc(C2=C(c3cn(C4CCN(Cc5ccccn5)CC4)c4ccccc34)C(=O)NC2=O)c2ccccc21  condition not met
2  Cc1cc(SCc2sc(-c3ccc(C(F)(F)F)c(F)c3)nc2C)ccc1OCC(=O)O      condition met

Item `O=C(O)C(=O)c1cn(Cc2ccccc2)c2ccc(-c3ccc(OC(F)(F)F)cc3)cc12` : Z-AUC beneath -0.3, strictly?
condition not met

====

# TARGET_SYSTEM: Cytochrome P450 2D6 (Homo sapiens)
# ASSAY_METHOD_TEXT: Cytochrome P450 family 2 subfamily D member 6 (CYP2D6) small molecule antagonists: luciferase biochemical (cell-free) qHTS assay (AID 1645840); note: nearly all actives have a fitted effect of over 55% in size
# EXPERIMENTAL_SETUP: P450-Glo CYP2D6 enzyme, luciferin luminescence, 1 h; series mostly up to 57.4 µM
Records with an inconclusive call do not appear. The source made the active and inactive calls. The call rests on the fitted dose curve; in most records, active means well fitted inhibition curve with a large enough effect in the repeat runs; inconclusive means weak or mixed curves; inactive means flat fitted curve, though single readings scatter.
Use one of these outcomes when replying: active, inactive

Here are 3 compounds together with their reported answers.
COMPOUND	ASSIGNED_LABEL
CCCN1CCC[C@@H]2Cc3nc(N)ncc3C[C@H]21	active
CC(C)CC(N(C)C)C1(c2ccc(Cl)cc2)CCC1 (stereo not drawn)	active
CNCC(O)c1ccc(O)cc1 (stereo not drawn)	inactive

Please let me know the test result on file for NCC(O)c1ccc(O)cc1 (stereo not drawn) .
inactive

====

# ASSAY_METHOD_TEXT: qHTS to identify inhibitors of the type 1 interferon - major histocompatibility complex class I in skeletal muscle: primary screen against the NCATS LOPAC collection (AID 1347405);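 note: human myoblasts with HiBiT tag on endogenous HLA-B stimulated by IFN-beta; lytic HiBiT luminescence reporting HLA-B protein level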
# EXPERIMENTAL_SETUP: iHSKM muscle cells, IFN-b-induced MHC-I HiBiT luminescence, 24 h; series mostly up to 45.9 µM
Inconclusive results are not listed. Activity calls are given as the source filed them. Calls follow the shape of the dose curve; as a rule, active = well fitted inhibition curve with a large enough effect; inconclusive = small, poorly fitted or top-dose-only effect; inactive = flat fitted curve, though single readings scatter.
Use one of these outcomes when replying: active, inactive

MOLECULE	ASSIGNED_LABEL
CC(=O)[C@H]1CC[C@H]2[C@@H]3CC[C@H]4C[C@](C)(O)CC[C@]4(C)[C@H]3CC[C@]12C	inactive
O=C1NCN(c2ccccc2)C12CCN(CC1COc3ccccc3O1)CC2 (stereo not given)	inactive
Cc1cccc(C)c1NC1=NCCCS1	inactive
CC(C)=CCOc1c2occc2cc2ccc(=O)oc12	inactive
CC(=O)[C@H]1CC[C@H]2[C@@H]3CC[C@H]4C[C@H](O)CC[C@]4(C)[C@H]3C(=O)C[C@]12C	inactive

Please let me know the test result on file for `C[C@@H]1O[C@@H](O[C@H]2C[C@@H](O)[C@]3(CO)[C@H]4[C@H](O)C[C@]5(C)[C@@H](C6=CC(=O)OC6)CC[C@]5(O)[C@@H]4CC[C@]3(O)C2)[C@H](O)[C@H](O)[C@H]1O` .
active

Please let me know the test result on file for `CN1C[C@H](CNC(=O)OCc2ccccc2)C[C@@H]2c3cccc4c3c(cn4C)C[C@H]21` .
inactive

Please let me know the test result on file for CC(CCc1ccccc1)NC(C)C(O)c1ccc(O)cc1 (stereo not given) .
inactive

Please let me know the test result on file for `CCCN1CCC[C@@H]2Cc3nc(N)ncc3C[C@H]21` .
inactive

Please let me know the test result on file for CC(O)(CS(=O)(=O)c1ccc(F)cc1)C(=O)Nc1ccc(C#N)c(C(F)(F)F)c1 (stereo not given) .
inactive

Please let me know the test result on file for CNCC(O)c1ccc(O)cc1 (stereo not given) .
inactive

Please let me know the test result on file for `N#CC(C#N)=Cc1ccc(O)c(O)c1` .
inactive

Please let me know the test result on file for `COc1ccccc1N1CCNCC1` .
inactive

Please let me know the test result on file for `NN=C(N)N` .
inactive

====

# System: CP238
# ASSAY_METHOD_TEXT: qHTS profiling for inhibitors of Plasmodium falciparum proliferation (AID 504749); note: nearly all actives have a fitted effect of over 60% in size
# EXPERIMENTAL_SETUP: P. falciparum in erythrocytes, SYBR Green DNA, 72 h; series mostly up to 28.7 µM
Inconclusive results are not listed. Active and inactive are the calls of the source. The call rests on the fitted dose curve; in most records, active means well fitted inhibition curve with a large enough effect; inconclusive means small, poorly fitted or top-dose-only effect; inactive means flat fitted curve, though single readings scatter.
Use one of these outcomes when replying: active, inactive

Here are 4 compounds together with their reported answers.
>>> df
                                   compound  assigned_label
0  CN1C[C@H](CNC(=O)OCc2ccccc2)C[C@@H]2c3cccc4c3c(cn4C)C[C@H]21          active
1  O=c1[nH]c2ccccc2n1C1CCN(CCCC(c2ccc(F)cc2)c2ccc(F)cc2)CC1        inactive
2  CC(C)CC(N(C)C)C1(c2ccc(Cl)cc2)CCC1 (stereo not drawn)        inactive
3      NCC(O)c1ccc(O)cc1 (stereo not drawn)        inactive

Please let me know the test result on file for CC(C)=CC1C(C(=O)OCc2cccc(Oc3ccccc3)c2)C1(C)C (stereo not drawn) .
inactive

Please let me know the test result on file for `Cc1ccc(-c2nc3ccc(C)cn3c2CC(=O)N(C)C)cc1` .
inactive

Please let me know the test result on file for `COc1ccc(C(=O)c2c(C)n(CCN3CCOCC3)c3ccccc23)cc1` .
inactive

Please let me know the test result on file for CC1OC(C)OC(C)O1 (stereo not drawn) .
inactive

====

# TARGET_SYSTEM: Muscarinic acetylcholine receptor M1 (Rattus norvegicus) (UniProt P08482)
# Sequence (P08482 whole entry, looked up): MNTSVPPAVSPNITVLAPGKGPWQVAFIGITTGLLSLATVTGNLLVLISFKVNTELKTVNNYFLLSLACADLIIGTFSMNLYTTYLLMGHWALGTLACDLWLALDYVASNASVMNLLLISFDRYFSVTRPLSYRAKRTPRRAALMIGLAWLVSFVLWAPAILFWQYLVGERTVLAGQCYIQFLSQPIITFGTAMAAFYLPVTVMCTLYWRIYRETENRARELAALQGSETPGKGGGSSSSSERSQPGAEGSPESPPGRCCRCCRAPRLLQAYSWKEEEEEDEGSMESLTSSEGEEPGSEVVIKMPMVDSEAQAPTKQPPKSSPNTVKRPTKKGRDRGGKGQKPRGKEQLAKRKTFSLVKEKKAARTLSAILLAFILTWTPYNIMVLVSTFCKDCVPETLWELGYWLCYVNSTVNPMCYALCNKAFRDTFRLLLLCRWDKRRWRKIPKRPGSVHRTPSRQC
# ASSAY_METHOD_TEXT: qHTS Assay for Antagonists of Acetylcholine Muscarinic M1 Receptor: Kinetic Measurement of Intracellular Calcium Response (AID 943); note: nearly all actives have a fitted effect of over 75% in size
# EXPERIMENTAL_SETUP: M1-expressing cells, kinetic intracellular calcium fluorescence; series mostly up to 35.3 µM
Results filed as inconclusive are left out. Calls of active or inactive are those of the source. Calls come from the whole dose curve; as a rule, active = well fitted inhibition curve with a large enough effect; inconclusive = small, poorly fitted or top-dose-only effect; inactive = no such curve, though single readings can be large or run the other way.
Use one of these outcomes when replying: T = active, F = inactive

In [3]: df
Out[3]:
                              record_smiles  assigned_label
0  Fc1ccc(C(OCCN2CCN(CCCc3ccccc3)CC2)c2ccc(F)cc2)cc1               T
1                        COc1ccccc1N1CCNCC1               F
2           CCn1cc(C(=O)O)c(=O)c2ccc(C)nc21               F

Please let me know the test result on file for `O=c1c(O)c(-c2ccc(O)c(O)c2)oc2cc(O)cc(O)c12` .
F

====

# System: CP286
# ASSAY_METHOD_TEXT: qHTS profiling for inhibitors of Plasmodium falciparum proliferation (AID 504749); note: nearly all actives have a fitted effect of over 60% in size
# EXPERIMENTAL_SETUP: P. falciparum in erythrocytes, SYBR Green DNA, 72 h; series mostly up to 28.7 µM
Results filed as inconclusive are left out. Active and inactive are the calls of the source. The call rests on the fitted dose curve; in most records, active means well fitted inhibition curve with a large enough effect; inconclusive means small, poorly fitted or top-dose-only effect; inactive means flat fitted curve, though single readings scatter.
Use one of these outcomes when replying: 1 = active, -1 = inactive

Here are 3 compounds together with their reported answers.
In [3]: df
Out[3]:
                      compound  assigned_label
0        CC(C)(N)Cc1ccc(Cl)cc1              -1
1  CC(C)(C)CC(C)(C)c1ccc(O)cc1              -1
2          NCC1(CC(=O)O)CCCCC1              -1

Please let me know the test result on file for `c1ccc(C2CC2)c(OCC2=NCCN2)c1` .
-1

Please let me know the test result on file for `CN(C)CCc1ccc(O)cc1` .
-1

Please let me know the test result on file for CC(C)NCC(O)c1ccccc1Cl (stereo not given) .
1

Please let me know the test result on file for NCC(CC(=O)O)c1ccc(Cl)cc1 (stereo not given) .
-1

Please let me know the test result on file for CCCC(C)(COC(N)=O)COC(=O)NC(C)C (stereo not given) .
-1

Please let me know the test result on file for CC1NCCOC1c1ccccc1 (stereo not given) .
-1

Please let me know the test result on file for O=C(NC(O)C(Cl)(Cl)Cl)NC(O)C(Cl)(Cl)Cl (stereo not given) .
-1

Please let me know the test result on file for `CC(=O)[C@H]1CC[C@H]2[C@@H]3CC[C@H]4C[C@H](O)CC[C@]4(C)[C@H]3C(=O)C[C@]12C` .
-1

====

# Tested on: PC26
# ASSAY_METHOD_TEXT: qHTS profiling for inhibitors of Plasmodium falciparum proliferation (AID 504749); note: nearly all actives have a fitted effect of over 60% in size
# EXPERIMENTAL_SETUP: P. falciparum in erythrocytes, SYBR Green DNA, 72 h; series mostly up to 28.7 µM
Results filed as inconclusive are left out. Activity calls are given as the source filed them. Calls come from the whole dose curve; as a rule, active = well fitted inhibition curve with a large enough effect; inconclusive = small, poorly fitted or top-dose-only effect; inactive = flat fitted curve, though single readings scatter.
Use one of these outcomes when replying: yes (1) = active, no (0) = inactive

Here are 5 compounds together with their reported answers.
In [3]: df
Out[3]:
                                   compound  assigned_label
0    CCCC1CCCCN1 (configuration not stated)          no (0)
1  CC1OC(C)OC(C)O1 (configuration not stated)          no (0)
2  CC(C)CC(N(C)C)C1(c2ccc(Cl)cc2)CCC1 (configuration not stated)          no (0)
3  CC[C@@H](CO)NC(=O)[C@@H]1C=C2c3cccc4[nH]cc(c34)C[C@H]2N(C)C1          no (0)
4     N[C@@H](Cc1ccc(N(CCCl)CCCl)cc1)C(=O)O          no (0)

Please let me know the test result on file for `CCN(C(C)=O)c1cccc(-c2ccnc3c(C#N)cnn23)c1` .
no (0)

Please let me know the test result on file for `Oc1ccc(Cl)cc1Cc1ccccc1` .
yes (1)
